- Procedure Text: Pharmacokinetic modeling with sparse PK samples from 69 patients with HRS-1
- Test Settings: human, in vivo
Where a SMILES comes first, the peptide text is derived from it. Bridges are numbered along the chain shown (N, C = ends).
Test Readout: Vd (L)
Reply with just the number (in L).

-- ask What measured Vd goes with NCCCC[C@H](NC(=O)[C@@H]1CCCN1C(=O)[C@@H]1CSSC[C@H](NC(=O)CNC(=O)CNC(=O)CN)C(=O)N[C@@H](Cc2ccc(O)cc2)C(=O)N[C@@H](Cc2ccccc2)C(=O)N[C@@H](CCC(N)=O)C(=O)N[C@@H](CC(N)=O)C(=O)N1)C(=O)NCC(N)=O [Terlipressin] (H-GGGCYFQNCPKG-NH2; disulfide 4-9 (inferred)) ?
-- reply 6.3
